Entry source: patent US20220347304A1

Biological target: T1, human IL-22 receptor (human IL-22Ra and human IL-10Rb) on cells (human, UniProt Q8N6P7 16-574; Q08334 20-325)
T1 sequence (looked up) 1: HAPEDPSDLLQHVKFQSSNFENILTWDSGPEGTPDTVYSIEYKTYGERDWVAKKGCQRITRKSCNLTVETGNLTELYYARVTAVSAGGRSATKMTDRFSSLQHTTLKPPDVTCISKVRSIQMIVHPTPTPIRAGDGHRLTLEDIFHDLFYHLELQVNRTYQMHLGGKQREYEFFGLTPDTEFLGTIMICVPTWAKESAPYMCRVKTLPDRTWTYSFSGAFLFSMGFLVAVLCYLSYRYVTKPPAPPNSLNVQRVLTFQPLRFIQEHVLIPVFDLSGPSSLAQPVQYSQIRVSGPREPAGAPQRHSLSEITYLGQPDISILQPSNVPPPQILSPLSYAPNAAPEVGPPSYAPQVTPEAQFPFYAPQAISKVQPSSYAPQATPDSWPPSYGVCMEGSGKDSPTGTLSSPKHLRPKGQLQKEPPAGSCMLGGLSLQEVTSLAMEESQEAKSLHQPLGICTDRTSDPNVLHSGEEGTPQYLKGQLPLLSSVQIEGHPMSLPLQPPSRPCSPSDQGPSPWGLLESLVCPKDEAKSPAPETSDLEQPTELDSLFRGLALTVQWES
T1 sequence (looked up) 2: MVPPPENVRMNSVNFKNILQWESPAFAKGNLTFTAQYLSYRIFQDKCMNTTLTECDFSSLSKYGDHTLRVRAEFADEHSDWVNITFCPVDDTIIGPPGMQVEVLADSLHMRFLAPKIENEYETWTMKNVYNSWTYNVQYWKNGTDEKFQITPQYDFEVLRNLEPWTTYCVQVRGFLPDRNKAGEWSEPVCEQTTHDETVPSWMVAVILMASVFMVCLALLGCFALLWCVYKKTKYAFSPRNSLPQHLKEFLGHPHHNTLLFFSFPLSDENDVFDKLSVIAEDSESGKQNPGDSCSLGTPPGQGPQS
Test: cell-based or functional assay
result_type: EC50, pSTAT3 (AlphaScreen SureFire STAT3 p-Tyr705) in HepG2 cells (nM)
Please give a number only; it is taken to be in nM.

Please review the following examples before continuing.
binder="Comparator 1 (ligand) GPISSHCRLDKSNFQQPYITNRTFMLAKEASLADNNTDVRLIGEKLFHGVSMSERCYLMKQVLNFTLEEVLFPQSDRFQPYMQEVVPFLARLSNRLSTCHIEGDDLHIQRNVQKLKDTVKKLGESGEIKAIGELDLLFMSLRNACI" measurement=4.73
binder="Derivative 1 (ligand, C18 diacid attached by linker γGlu-OEG-OEG-C2DA-Ac to Cys at site 1C (Cys substituted at position 1 of hIL-22, after the G-P-G N-terminal peptide)) GPGCPISSHCRLDKSNFQQPYITNRTFMLAKEASLADNNTDVRLIGEKLFHGVSMSERCYLMKQVLNFTLEEVLFPQSDRFQPYMQEVVPFLARLSNRLSTCHIEGDDLHIQRNVQKLKDTVKKLGESGEIKAIGELDLLFMSLRNACI" measurement=10.1
binder="Comparator 4 (ligand) GPGCPISSHCRLDKSNFQQPYITNRTFMLAKEASLADNNTDVRLIGEKLFHGVSMSERCYLMKQVLNFTLEEVLFPQSDRFQPYMQEVVPFLARLSNRLSTCHIEGDDLHIQRNVQKLKDTVKKLGESGEIKAIGELDLLFMSLRNACI" measurement=12.1
binder="Derivative 2 (ligand, C18 diacid attached by linker γGlu-OEG-OEG-C2DA-Ac to Cys at site -7C (in the 15-mer N-terminal peptide G-P-G-S-G-S-G-S-C-G-S-G-S-G-S, numbered negatively from hIL-22 residue 1)) GPGSGSGSCGSGSGSAPISSHCRLDKSNFQQPYITNRTFMLAKEASLADNNTDVRLIGEKLFHGVSMSERCYLMKQVLNFTLEEVLFPQSDRFQPYMQEVVPFLARLSNRLSTCHIEGDDLHIQRNVQKLKDTVKKLGESGEIKAIGELDLLFMSLRNACI" measurement=6.98

Consider the additional binder presented here.
I am curious: what EC50, pSTAT3 (AlphaScreen SureFire STAT3 p-Tyr705) in HepG2 cells value has been reported for Derivative 6 (ligand, C18 diacid attached by linker γGlu-OEG-OEG-C2DA-Ac to Cys at site 1C (Cys substituted at position 1 of hIL-22)) GPGCPISSHCRLDKSNFQQPYITNRTFMLAKEASLADQNTDVRLIGEKLFHGVSMSERCYLMKQVLQFTLEEVLFPQSDRFQPYMQEVVPFLARLSNRLSTCHIEGDDLHIQRNVQKLKDTVKKLGESGEIKAIGELDLLFMSLRNACI ?
14.9
